target: T1, human CD3 epsilon (Acro Cat #CDE-H5223) (human, UniProt P07766 23-126); assay: SPR (Biacore), antibody captured, human CD3 epsilon analyte
T1 construct: Bought recombinant protein; also called rhCD3E
T1 sequence (P07766 23-126 limits assumed): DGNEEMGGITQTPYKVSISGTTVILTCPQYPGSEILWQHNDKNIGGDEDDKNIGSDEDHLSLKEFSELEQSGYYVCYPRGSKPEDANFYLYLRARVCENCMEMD
For each of the binders below, state its kon.
Give just the numeric value; M⁻¹ s⁻¹ need not be written.

Return reported kon; argument: 2037-B10_Hc-G105D (antibody, human IgG1, lambda, V domains shown, human IgG1, lambda; also called SRP 2037 G105D; 2037-B10_VH-G105D) VH: EVQLVESGGGLVKPGGSLRLSCAASGFTFNKYAMNWVRQAPGKGLEWVARIRTKYNNYATYYADSVKDRFTISRDDSKNTAYLQMNSLKTEDTAVYYCVRHGNFDNSYISYWAYWGQGTPVTVSS VL: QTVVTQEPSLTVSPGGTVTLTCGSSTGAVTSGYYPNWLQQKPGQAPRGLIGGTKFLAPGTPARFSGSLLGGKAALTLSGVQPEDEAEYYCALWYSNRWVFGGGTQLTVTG 270000

Return reported kon; argument: 2037-B10_Hc-F104D (antibody, human IgG1, lambda, V domains shown, human IgG1, lambda; also called SRP 2037 F104D; 2037-B10_VH-F104D) VH: EVQLVESGGGLVKPGGSLRLSCAASGFTFNKYAMNWVRQAPGKGLEWVARIRTKYNNYATYYADSVKDRFTISRDDSKNTAYLQMNSLKTEDTAVYYCVRHGNDGNSYISYWAYWGQGTPVTVSS VL: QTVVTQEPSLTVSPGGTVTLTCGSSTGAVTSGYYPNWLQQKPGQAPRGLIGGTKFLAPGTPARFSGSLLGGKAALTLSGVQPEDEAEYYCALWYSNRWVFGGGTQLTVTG 80700

Return reported kon; argument: 2037-B10_Hc-Y108D (antibody, human IgG1, lambda, V domains shown, human IgG1, lambda; also called 2037-B10_VH-Y108D) VH: EVQLVESGGGLVKPGGSLRLSCAASGFTFNKYAMNWVRQAPGKGLEWVARIRTKYNNYATYYADSVKDRFTISRDDSKNTAYLQMNSLKTEDTAVYYCVRHGNFGNSDISYWAYWGQGTPVTVSS VL: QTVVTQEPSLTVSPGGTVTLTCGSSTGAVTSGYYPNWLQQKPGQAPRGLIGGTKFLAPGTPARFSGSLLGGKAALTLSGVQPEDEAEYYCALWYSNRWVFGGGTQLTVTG 796000
